biological target: Kv1.3 potassium channel (Homo sapiens); experiment: Kv1.3 potassium channel blocker activity, automated whole-cell patch clamp (Patchliner) in CHO-K1 cells stably expressing Kv1.3; conditions: 30 nM-100 μM
Sequence (P22001 whole entry): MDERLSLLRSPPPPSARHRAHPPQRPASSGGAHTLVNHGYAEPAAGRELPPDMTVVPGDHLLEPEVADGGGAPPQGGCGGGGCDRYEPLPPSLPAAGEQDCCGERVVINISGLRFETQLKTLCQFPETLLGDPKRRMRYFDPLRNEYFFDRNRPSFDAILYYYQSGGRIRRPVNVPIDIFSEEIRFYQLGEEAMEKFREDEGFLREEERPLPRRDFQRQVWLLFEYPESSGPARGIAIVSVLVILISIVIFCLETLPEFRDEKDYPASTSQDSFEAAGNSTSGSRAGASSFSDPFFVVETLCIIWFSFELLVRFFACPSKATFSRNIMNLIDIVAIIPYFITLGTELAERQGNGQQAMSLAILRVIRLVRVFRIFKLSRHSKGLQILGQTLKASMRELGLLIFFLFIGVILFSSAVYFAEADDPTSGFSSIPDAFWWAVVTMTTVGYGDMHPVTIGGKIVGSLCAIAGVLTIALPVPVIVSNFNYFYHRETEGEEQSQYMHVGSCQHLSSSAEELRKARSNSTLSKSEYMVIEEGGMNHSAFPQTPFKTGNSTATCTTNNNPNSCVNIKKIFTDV

{"columns": ["compound", "IC50"],
 "data": [
  ["O=C([C@H]1CN[C@@H](CO)C1)N1CC[C@]2(C1)C(=O)Nc1cc(Cl)c(Cl)cc12 [Compound 116]", "< 100 nM"],
  ["COC[C@@H]1C[C@H](C(=O)N2CC[C@]3(C2)C(=O)Nc2cc(Cl)c(Cl)cc23)CN1 [Compound 109]", "< 1000 nM"],
  ["O=C(CO)N1CC[C@@]2(C1)C(=O)Nc1cc(Cl)c(Br)cc12 [Compound 117]", "< 10000 nM"],
  ["O=C([C@H]1CC[C@@H](O)C1)N1CC[C@]2(C1)C(=O)Nc1cc(Cl)c(Cl)cc12 (single isomer, unassigned; isomer 3) [Compound 65]", "< 3000 nM"],
  ["O=C([C@@H]1CNC[C@H]1O)N1CC[C@]2(C1)C(=O)Nc1cc(Cl)c(Cl)cc12 (single isomer, unassigned) [Compound 3]", "< 100 nM"],
  ["O=C(c1cn[nH]n1)N1CC[C@]2(C1)C(=O)Nc1cc(Cl)c(Cl)cc12 [Compound 137]", "< 1000 nM"],
  ["Nc1cc(N2CC[C@]3(C2)C(=O)Nc2cc(Cl)c(Cl)cc23)ncn1 [Compound 148]", "< 3000 nM"]
]}

This collection of values is drawn from patent US20240391926A1.
